System: VeroE6 normal kidney epithelial
Experimental protocol: Live cells / PCD by FACS of nonpermeabilized cells stained with annexin-V and PI
Format: cell-based, monkey
Measurement parameters: read-out: IC50 Live Cells (PCD)
Parameter measured: pIC50
One number for each entry, as −log10 of the molar value.

Request: I'd like to know its pIC50. The compound in question is C(=N\Nc1nc(Nc2ccccc2)nc(N2CCOCC2)n1)/c1c[nH]c2ccccc12
Response: 4.22

###

Tested on: VeroE6 cells
Experimental protocol: Inhibition of cell proliferation
Assay type: cell-based, monkey
Measurement parameters: read-out: IC50 inhibition of proliferation
Parameter measured: pIC50
One number for each entry, as −log10 of the molar value.

Request: I'd like to know its pIC50. The compound in question is C(=N\Nc1nc(Nc2ccccc2)nc(N2CCOCC2)n1)/c1c[nH]c2ccccc12
Response: 6.35

###

Tested on: NTERA-2 ECC
Experimental protocol: Cells with <2N DNA by FACS of permeabilized cells stained with PI
Type: cell-based, human
Measurement parameters: read-out: IC50 DNA (50% of cells with <2N DNA); NTERA-2 ECC
Parameter measured: IC50 (µM)
Answers are plain numbers, in µM.

Request: I'd like to know its IC50. The compound in question is C(=N\Nc1nc(Nc2ccccc2)nc(N2CCOCC2)n1)/c1c[nH]c2ccccc12
Response: 3.5

###

Tested on: H108 normal skin fibroblast
Experimental protocol: Cells with <2N DNA by FACS of permeabilized cells stained with PI
Type: cell-based, human
Measurement parameters: read-out: IC50 DNA (50% of cells with <2N DNA)
Parameter measured: IC50 (µM)
Answers are plain numbers, in µM.

Request: I'd like to know its IC50. The compound in question is C(=N\Nc1nc(Nc2ccccc2)nc(N2CCOCC2)n1)/c1c[nH]c2ccccc12 [WX8]
Response: 140

Every entry's value here was drawn from paper PMC8828683.
